Substrate: S protein of SARS-CoV-2 variant B.1.1.7 (UK, Alpha), full length, on pseudovirus or authentic virus (SARS-CoV-2), P0DTC2
test: cell-based or functional assay
parameter.measured: log10 SARS-CoV2 pseudovirus IC50 (log10 of the value in mg/L)

binder	log10 SARS-CoV2 pseudovirus IC50
RBD-chAb-1 (antibody, V domains shown) VH: EVQLQQSGPQLVRPGASMKISCKASGYSFTTYWMHWVKQRPGQGLQWIGMIDPSDSETRLNQKFKDKATLTVDKSSSTAYMQLSSPTSEDSAVYYCARDFDYDRTMDYWGQGTSVTVSS VL: DIVMSQSPSSLAVSVGEKVTMSCKSSQSLLFSSSQKNYLAWYQQKAGQSPKLLIFWASTRESGVPDRFTGSGSGTDFTLTISSVKAEDLAIYYCKQYYKYPLTFGAGTKLDIK	-1.47
RBD-chAb-28 (antibody, V domains shown) VH: QVQLQQPGTELVMPGASVKMSCKASGYTFTDYYLHWMKQRPGQGLEWIGAIDSSDSYTDYNQNFKGKATLTVDESSSTAYMHLSSLTSEDSAVYYCARGKDAYDRRPWFAYWGQGTLVTVSA VL: DIQMTQTTSSLSASLGDRVTISCSASQGIRYYLNWYQQKPDGTVKLLIYYTSNLHSGVPSRFSGSGSGTDYSLTISNLEPEDIATYYCQQYNKLPYTFGGGTKLDIK	-1.95
RBD-chAb-45 (antibody, V domains shown) VH: EVQLQQSGPELVKPGASVKISCKTSGYTFTEYTIYWVKQSLGKSLEWIGGNNPNNDDTTYKQFFKGKATLTVDKSSSTAYMELRSLTSEDSAVYYCARDGYPYYYALDFWGQGTSVTVSS VL: DILMTQSQKFMSTSVGDRVSVTCKSSQNVGTNVAWYQQKPGQSPKALIYSASYRYSGVPDHFTGSGSGTDFTLTISNVQSADLAEYFCQQYNNYPWTFGGGTKLDIK	-2.69
RBD-chAb-15 (antibody, V domains shown) VH: EVQLEESGPGLVQPSQSLSITCTVSDFSLTTYGVHWVRQSPGKGLEWLGVIWSGGSTDYNAAFISRLSISKDNSKSQVFFKMNSLQTNDTAIYYCARMGDGYYVGAMDYWGQGTSVTVSS VL: DIQLTQSPAILSVSPGERVSFSCRASQSIGTSIHWYQQRTNGSPRHLIKYASESISGIPSRFSGSGSGTDFTLTINGVESEDIADYYCQQGHNWPLTFGAGTKLDIK	-1.40
RBD-chAb-51 (antibody, V domains shown) VH: EVQLQQSGPELVKPGASAKISCKTSGYTFTEYTMYWVKQSHGKSLEWIGGINPNNGDTTYNQTFKGKATLTVDKSSSTAYMELRSLTSEDSAVYYCARDGYPFYYALDYWGQGISVTVSS VL: DIVMTQSQKFMSTSVGDRVSVTCKARQIVGTNVAWYQQKPGQSPKALIYSASYRYSGVPDRFTGSGSGTDFTLTITNVHSEDLAEFFCHQYNSYPWTFGGGTKLDIK	-2.51
